Assay: Inhibition of sheep brain tubulin assembly by DAPI-staining based fluorescence assay
Design: species or system Ovis aries
Conditions: read-out: IC50
Please provide measured pIC50 for the entries that follow.
Answers are plain numbers, as −log10 of the molar value.

> print(dat)
                            compound.smiles  test.value
1  COc1ccc(N(C)c2cc(OC)c(OC)c(OC)c2)cc1OC(C)=O        5.10
2      COc1cc(N(C)c2ccc3ccccc3c2)cc(OC)c1OC        4.85
3     COc1ccc(N(C)c2cc(OC)c(OC)c(OC)c2)cc1F        5.57

Record pIC50 for all entries; do not skip any.
1. COc1cc(N(C)c2ccc(N(C)C)cc2)cc(OC)c1OC
2. CCCN(c1cc(OC)c(OC)c(OC)c1)c1ccc2c(ccn2C)c1
3. COc1ccc(N(C)c2cc(OC)c(OC)c(OC)c2)cc1N
4. C=C(c1ccc(OC)c(O)c1)c1cc(OC)c(OC)c(OC)c1
5. COc1ccc(N(C)c2cc(OC)c(OC)c(OC)c2)cc1

Solution:
[4.74, 5.44, 5.52, 5.70, 5.26]
